// Voltage-gated inwardly rectifying potassium channel KCNH2 (Homo sapiens) pIC50 records
Scale: pIC50 equals -log10([C]), with [C] in mol/L.

smiles repr: CC(C)(C)c1cc(NC(=O)Cc2ccc(-n3cnc4cc(-c5cn[nH]c5)ccc43)cc2)on1
experimental target: Voltage-gated inwardly rectifying potassium channel KCNH2 (Homo sapiens)
Sequence (Q12809 whole entry): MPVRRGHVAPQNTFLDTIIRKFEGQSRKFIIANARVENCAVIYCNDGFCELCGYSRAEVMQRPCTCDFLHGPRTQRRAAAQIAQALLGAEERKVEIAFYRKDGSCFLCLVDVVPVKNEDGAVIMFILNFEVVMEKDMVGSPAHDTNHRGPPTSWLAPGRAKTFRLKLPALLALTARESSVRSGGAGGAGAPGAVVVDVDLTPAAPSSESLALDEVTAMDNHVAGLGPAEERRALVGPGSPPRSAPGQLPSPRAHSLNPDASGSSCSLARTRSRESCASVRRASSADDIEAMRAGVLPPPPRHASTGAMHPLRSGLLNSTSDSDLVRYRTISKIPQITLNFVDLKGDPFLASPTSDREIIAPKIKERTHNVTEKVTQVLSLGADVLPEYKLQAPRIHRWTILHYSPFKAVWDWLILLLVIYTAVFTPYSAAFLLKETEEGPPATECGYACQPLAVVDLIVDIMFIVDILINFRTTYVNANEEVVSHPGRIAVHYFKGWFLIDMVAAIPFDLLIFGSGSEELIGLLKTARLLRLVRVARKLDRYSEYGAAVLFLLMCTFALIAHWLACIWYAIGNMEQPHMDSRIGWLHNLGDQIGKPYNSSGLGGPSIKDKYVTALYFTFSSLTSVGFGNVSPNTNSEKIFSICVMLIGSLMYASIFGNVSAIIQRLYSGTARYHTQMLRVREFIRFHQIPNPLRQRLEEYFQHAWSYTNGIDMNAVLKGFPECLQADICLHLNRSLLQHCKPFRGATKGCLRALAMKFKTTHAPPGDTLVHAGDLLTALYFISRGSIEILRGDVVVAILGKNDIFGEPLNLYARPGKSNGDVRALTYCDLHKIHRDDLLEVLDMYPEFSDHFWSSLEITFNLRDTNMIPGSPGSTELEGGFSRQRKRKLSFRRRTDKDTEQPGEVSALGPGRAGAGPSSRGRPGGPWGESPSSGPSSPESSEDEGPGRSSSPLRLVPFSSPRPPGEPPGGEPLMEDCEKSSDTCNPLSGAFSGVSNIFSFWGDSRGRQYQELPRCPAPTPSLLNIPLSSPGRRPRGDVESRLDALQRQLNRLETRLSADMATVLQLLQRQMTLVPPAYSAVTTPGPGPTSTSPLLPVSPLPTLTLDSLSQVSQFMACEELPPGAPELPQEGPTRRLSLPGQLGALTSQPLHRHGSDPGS
pIC50: 4.58

As a next step, examine the compound that follows.
Find the measured pIC50: item Cn1cc(-c2ccc3c(c2)ncn3-c2ccc(CC(=O)Nc3cc(C(C)(C)C)no3)cc2)cn1 , target or system Voltage-gated inwardly rectifying potassium channel KCNH2 (Homo sapiens). 4.75

---

biological target: Platelet-derived growth factor receptor beta (Homo sapiens)
Sequence (P09619 whole entry): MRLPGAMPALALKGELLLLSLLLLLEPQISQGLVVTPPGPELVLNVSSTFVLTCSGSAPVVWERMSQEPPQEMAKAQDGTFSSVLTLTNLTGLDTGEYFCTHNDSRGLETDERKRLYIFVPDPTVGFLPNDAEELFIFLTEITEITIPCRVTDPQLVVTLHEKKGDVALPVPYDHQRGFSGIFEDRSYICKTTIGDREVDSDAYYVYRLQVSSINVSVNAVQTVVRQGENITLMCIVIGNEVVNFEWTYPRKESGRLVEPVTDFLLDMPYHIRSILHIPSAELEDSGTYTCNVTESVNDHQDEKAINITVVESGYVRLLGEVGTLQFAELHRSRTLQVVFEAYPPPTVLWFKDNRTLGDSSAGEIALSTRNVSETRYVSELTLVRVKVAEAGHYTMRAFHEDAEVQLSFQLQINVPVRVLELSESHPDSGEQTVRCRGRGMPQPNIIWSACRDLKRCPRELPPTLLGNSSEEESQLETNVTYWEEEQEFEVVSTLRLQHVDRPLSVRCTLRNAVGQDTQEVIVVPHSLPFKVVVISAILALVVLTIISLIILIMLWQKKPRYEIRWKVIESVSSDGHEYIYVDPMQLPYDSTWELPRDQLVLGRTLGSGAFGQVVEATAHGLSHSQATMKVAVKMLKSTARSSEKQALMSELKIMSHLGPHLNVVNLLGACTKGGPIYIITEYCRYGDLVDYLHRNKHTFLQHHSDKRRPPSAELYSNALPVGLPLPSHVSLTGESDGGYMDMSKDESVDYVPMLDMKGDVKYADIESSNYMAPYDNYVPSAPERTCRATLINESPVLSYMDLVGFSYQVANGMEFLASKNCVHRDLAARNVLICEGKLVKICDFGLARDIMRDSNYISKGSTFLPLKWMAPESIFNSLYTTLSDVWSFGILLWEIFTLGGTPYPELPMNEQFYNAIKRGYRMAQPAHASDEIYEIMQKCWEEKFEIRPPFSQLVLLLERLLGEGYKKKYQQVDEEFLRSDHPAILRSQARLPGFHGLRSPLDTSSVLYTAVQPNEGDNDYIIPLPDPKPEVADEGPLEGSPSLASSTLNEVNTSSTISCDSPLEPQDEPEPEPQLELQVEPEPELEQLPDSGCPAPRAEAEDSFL
readout kind: IC50

smiles repr: Cn1cc(-c2ccc3c(c2)ncn3-c2ccc(CC(=O)Nc3cc(C(C)(C)C)no3)cc2)cn1
readout kind: IC50
observed measurement: 1.15 nM

Requested read-out: IC50. Entry: CC(C)(C)c1cc(NC(=O)Cc2ccc(-n3cnc4cc(-c5cccnc5)ccc43)cc2)on1 1.3 nM

Taken from ChEMBL document CHEMBL6083222.
